In this section we review reported fold change of affinity values for a set of binders.
Biological target: T1, Human CD3eg linker (human)
T1 construct: single-chain construct; also called recombinant human CD3
T1 chain: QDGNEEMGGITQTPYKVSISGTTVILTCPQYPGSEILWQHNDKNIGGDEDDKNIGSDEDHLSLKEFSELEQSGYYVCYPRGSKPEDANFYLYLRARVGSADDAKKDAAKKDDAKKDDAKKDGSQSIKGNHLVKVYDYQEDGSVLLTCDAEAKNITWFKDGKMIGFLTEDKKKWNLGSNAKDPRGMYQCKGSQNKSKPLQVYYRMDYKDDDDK
Experiment: SPR, vs unmutated H183/L072
Report the value in fold with no unit label.

Examples with answers:
dBBDu183H V63T/dBBDu072L (antibody, name in Kabat numbering, V domains shown) VH: QVQLVESGGGLVQPGRSLRLSCAASGFTFSNAWMHWVRQAPGKGLEWVAQIKDKGNAYAAYYAPSTKGRFTISRDDSKNSIYLQMNSLKTEDTAVYYCHYVHYASASTVLPAFGVDAWGQGTTVTVSS VL: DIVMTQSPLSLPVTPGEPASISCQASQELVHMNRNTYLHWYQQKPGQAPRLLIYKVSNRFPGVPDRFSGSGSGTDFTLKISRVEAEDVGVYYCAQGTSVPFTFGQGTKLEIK    1.2
dBBDu183H S99W/dBBDu072L (antibody, name in Kabat numbering, V domains shown) VH: QVQLVESGGGLVQPGRSLRLSCAASGFTFSNAWMHWVRQAPGKGLEWVAQIKDKGNAYAAYYAPSVKGRFTISRDDSKNSIYLQMNSLKTEDTAVYYCHYVHYAWASTVLPAFGVDAWGQGTTVTVSS VL: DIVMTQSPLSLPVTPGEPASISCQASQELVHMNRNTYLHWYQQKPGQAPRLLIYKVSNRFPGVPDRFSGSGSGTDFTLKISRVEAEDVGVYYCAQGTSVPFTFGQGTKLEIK    0.9

Give its fold change of affinity value. Item: dBBDu183H D101K/dBBDu072L (antibody, name in Kabat numbering, V domains shown) VH: QVQLVESGGGLVQPGRSLRLSCAASGFTFSNAWMHWVRQAPGKGLEWVAQIKDKGNAYAAYYAPSVKGRFTISRDDSKNSIYLQMNSLKTEDTAVYYCHYVHYASASTVLPAFGVKAWGQGTTVTVSS VL: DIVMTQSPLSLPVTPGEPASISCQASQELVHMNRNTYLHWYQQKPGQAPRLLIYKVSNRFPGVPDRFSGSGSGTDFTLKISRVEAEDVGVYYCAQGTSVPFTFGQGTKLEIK
0
